- assay procedure: antimalarial activity against Dd2 strain (AID 2302)
- experimental setup: P. falciparum Dd2 in RBCs, LDH growth readout, 72 h; at 2 µM
The source made the active and inactive calls.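 How the source made its calls: active means growth inhibition above 50% at the single 2 µM test dose, taken to imply half-maximal potency below 2 µM; inactive means the rest.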
Select the matching outcome among active, inactive

Before answering, review these 10 worked examples.
compound: O=C(Nc1ccccc1Br)c1cn(-c2ccccc2)nc1-c1cccc([N+](=O)[O-])c1
class assignment: inactive

compound: O=C(NC1CCCCC1)c1ccc(O)c(-c2cccc(C(F)(F)F)c2)c1
class assignment: active

compound: O=C(Nc1ccc(Cl)c(C(F)(F)F)c1)NC1CCN(CCCCCNC(=O)[C@@H]2C[C@H]2c2ccc(Cl)c(Cl)c2)CC1
class assignment: inactive

compound: CC(C)CCC[C@@H]([C@@H](CC1CCCCC1)C(=O)N[C@@H](CCCCNC(=O)OCc1ccccc1)C(=O)Nc1nccs1)N(O)C=O
class assignment: active

compound: C[C@@H](NC(=O)NC(CCN1CCC2(CC1)CN(S(C)(=O)=O)c1ccccc12)c1ccc(Cl)c(Cl)c1)c1ccccc1 (stereo partly drawn)
class assignment: active

compound: CC1(C)N=C(N)N=C(N)N1OCCCSc1ccccc1
class assignment: active

compound: O=C(NCCCN1CCC(N2CCCCC2)CC1)c1ccc2nc(N3CCCCC3)sc2c1
class assignment: inactive

compound: CN(C)CCCOc1cccc(CCNCc2cccc(Oc3ccc(Cl)cc3)c2)c1
class assignment: active

compound: O=C(NCCCCCN1CCC(c2ccc(O)cc2)CC1)c1ccc(-c2ccccc2)cc1
class assignment: inactive

compound: CC(=O)c1ccc(-c2ccc(C(=O)NCCCCN3CCC(c4ccc5c(c4OCC(N)=O)CCCC5)CC3)cc2)s1
class assignment: inactive

**Query** I would be grateful if you could indicate the recorded call for CC(C)[C@H](NC(=O)c1ccc(O)c(-c2ccc(Cl)c(Cl)c2)c1)C(=O)NC1CCCCCC1 .
**Result** active

**Query** I would be grateful if you could indicate the recorded call for COc1cc2nc(N3CCC(CNC(=O)c4ccc(-c5ccc(C(F)(F)F)cc5)cc4)CC3)nc(N)c2cc1OC .
**Result** active

**Query** I would be grateful if you could indicate the recorded call for Fc1ccc(Nc2ccnc3cc(-c4cccc(CNCCN5CCOCC5)c4)ccc23)c(Cl)c1 .
**Result** active
